Record form. Attribute: pIC50. Fill in for each entry.
Target: UniProt:Q9NYK1
Sequence (Q9NYK1 27-1049): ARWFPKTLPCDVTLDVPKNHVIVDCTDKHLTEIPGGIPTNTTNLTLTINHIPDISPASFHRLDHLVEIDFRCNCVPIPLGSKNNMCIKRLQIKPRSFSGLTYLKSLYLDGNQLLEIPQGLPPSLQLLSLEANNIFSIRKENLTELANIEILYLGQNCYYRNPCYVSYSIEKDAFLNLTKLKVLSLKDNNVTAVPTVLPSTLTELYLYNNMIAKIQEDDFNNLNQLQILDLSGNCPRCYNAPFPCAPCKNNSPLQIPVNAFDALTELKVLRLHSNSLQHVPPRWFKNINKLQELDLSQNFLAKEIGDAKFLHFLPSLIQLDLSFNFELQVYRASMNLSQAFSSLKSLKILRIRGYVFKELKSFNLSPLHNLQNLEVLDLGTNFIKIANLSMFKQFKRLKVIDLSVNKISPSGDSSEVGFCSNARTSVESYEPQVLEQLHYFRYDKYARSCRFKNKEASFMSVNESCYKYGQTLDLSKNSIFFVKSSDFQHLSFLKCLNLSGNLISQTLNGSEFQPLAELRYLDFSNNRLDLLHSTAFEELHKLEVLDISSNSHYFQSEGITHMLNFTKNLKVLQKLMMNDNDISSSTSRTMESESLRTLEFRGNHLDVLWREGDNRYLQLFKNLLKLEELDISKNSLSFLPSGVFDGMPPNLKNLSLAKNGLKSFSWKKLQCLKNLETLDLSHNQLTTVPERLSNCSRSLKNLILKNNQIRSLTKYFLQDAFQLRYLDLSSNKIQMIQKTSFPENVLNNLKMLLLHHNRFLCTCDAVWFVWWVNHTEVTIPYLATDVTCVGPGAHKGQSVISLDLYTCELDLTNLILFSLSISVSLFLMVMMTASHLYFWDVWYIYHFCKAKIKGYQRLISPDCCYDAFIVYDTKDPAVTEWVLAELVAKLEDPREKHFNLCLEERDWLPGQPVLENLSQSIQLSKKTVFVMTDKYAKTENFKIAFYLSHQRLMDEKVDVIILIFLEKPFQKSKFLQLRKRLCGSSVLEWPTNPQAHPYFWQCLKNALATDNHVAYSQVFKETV
Test: TLR7 inhibition reporter assay (HEK-Blue cells, SEAP reporter, gardiquimod stimulation)
Conditions: HEK-Blue cells overexpressing human TLR7, SEAP reporter, gardiquimod 7.5 μM
Give bare numbers, as −log10 of the molar value.

Cc1cc(-c2[nH]nc(-c3ccc(N4CCNCC4)cc3)c2C(C)C)cn2ncnc12 ... 8.56
COCCN1CCC(NC(=O)c2n[nH]c(-c3cc(C)c4ncnn4c3)c2C(C)C)CC1 ... 9.11
Cc1c(C(=O)NC2CCN(C(C)C)CC2)n[nH]c1-c1cc(C)c2ncnn2c1 ... 8.01

Hey, quick one: what's pIC50 for each of these?
1. Cc1cc(-c2[nH]nc(-c3cncc(N(C)C)c3)c2C(C)C)cn2ncnc12
2. Cc1cc(-c2[nH]nc(C(=O)NC3CCN(C(C)C)CC3)c2CC(F)(F)F)cn2ncnc12
3. CNC(=O)CN1CCC(NC(=O)c2n[nH]c(-c3cc(C)c4ncnn4c3)c2C(C)C)CC1
4. CC(C)c1c(C(=O)NC2CCN(C)CC2)n[nH]c1-c1cn(C)c2ncccc12
5. COc1cc(-c2[nH]nc(-c3ccc(C4CCNCC4)cn3)c2C(C)C)cn2ncnc12
6. Cc1cc(-c2[nH]nc(C(=O)NCC3CN(C(C)C)CCO3)c2C(C)C)cn2ncnc12 (centres unmarked) [Example 135]
7. Cc1cc(-c2[nH]nc(-c3ccc4c(c3)CCN(CC(=O)N(C)C)C4)c2C(C)C)cn2ncnc12

a:
1: 8.27; 2: 8.71; 3: 8.49; 4: 8.92; 5: 7.70; 6: 8.17; 7: 9.02

----------
Molecular target: human TLR8 (Homo sapiens, UniProt Q9NR97)
Sequence (Q9NR97 27-1041): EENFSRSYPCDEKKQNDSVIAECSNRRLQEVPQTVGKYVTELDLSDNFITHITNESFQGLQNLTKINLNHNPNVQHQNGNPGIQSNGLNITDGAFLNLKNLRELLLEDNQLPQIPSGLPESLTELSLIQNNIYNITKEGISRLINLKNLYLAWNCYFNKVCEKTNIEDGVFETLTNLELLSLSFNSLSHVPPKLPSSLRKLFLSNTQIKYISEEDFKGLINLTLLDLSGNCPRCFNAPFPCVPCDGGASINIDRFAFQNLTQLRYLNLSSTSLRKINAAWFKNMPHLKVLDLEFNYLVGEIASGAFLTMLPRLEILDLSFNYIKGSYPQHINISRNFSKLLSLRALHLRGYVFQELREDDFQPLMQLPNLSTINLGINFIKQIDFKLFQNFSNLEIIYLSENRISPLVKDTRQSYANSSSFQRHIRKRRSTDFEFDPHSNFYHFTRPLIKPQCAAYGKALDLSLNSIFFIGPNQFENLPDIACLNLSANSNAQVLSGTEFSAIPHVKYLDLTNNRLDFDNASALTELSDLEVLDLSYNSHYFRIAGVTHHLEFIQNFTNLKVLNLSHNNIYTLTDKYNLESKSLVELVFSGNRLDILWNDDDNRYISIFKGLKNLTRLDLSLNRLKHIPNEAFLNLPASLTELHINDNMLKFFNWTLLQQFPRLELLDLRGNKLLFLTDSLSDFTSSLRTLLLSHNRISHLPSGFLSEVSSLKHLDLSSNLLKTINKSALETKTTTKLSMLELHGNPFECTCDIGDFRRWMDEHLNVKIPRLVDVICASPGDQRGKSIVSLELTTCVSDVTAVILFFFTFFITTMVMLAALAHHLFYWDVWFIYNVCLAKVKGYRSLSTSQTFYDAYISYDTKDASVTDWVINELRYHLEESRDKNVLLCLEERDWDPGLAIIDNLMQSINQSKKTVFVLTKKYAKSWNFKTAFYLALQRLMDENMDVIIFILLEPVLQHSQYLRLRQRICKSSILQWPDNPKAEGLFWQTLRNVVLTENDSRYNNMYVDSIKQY
Experiment: TLR8 inhibition reporter assay (HEK-Blue cells, SEAP reporter, R848 stimulation)
Conditions: HEK-Blue cells overexpressing human TLR8, SEAP reporter, R848 15.9 μM
API: label(entry) gives true (1) if the entry's IC50 is strictly smaller than 7 nM; on equality or larger values it gives false (0).

Worked cases, answers included:
CCN1CCc2nc(-c3n[nH]c(-c4cc(OC)c5ncnn5c4)c3C(C)C)sc2C1 ... true (1)
Cc1cc(-c2[nH]nc(C(=O)NCC3CN(CC4(C)COC4)CCO3)c2C(C)C)cn2ncnc12 (stereo not drawn) ... false (0)
Cc1cc(-c2[nH]nc(-c3ccc(C4CCN(C)CC4)nn3)c2C(C)C)cn2ncnc12 ... false (0)

q: Determine if Cc1cc(-c2[nH]nc(-c3ccc(C4CCN(C5COC5)CC4)nc3)c2C(C)C)cn2ncnc12 shows IC50 strictly lower than 7 nM.
a: false (0)

q: Determine if Cc1cc(-c2[nH]nc(C(=O)N[C@H]3CC[C@H](NCc4cccnc4)CC3)c2C(C)C)cn2ncnc12 shows IC50 strictly lower than 7 nM.
a: false (0)

q: Determine if COc1c(C)c(-c2[nH]nc(-c3ccc(C4CCNCC4)cn3)c2C(C)C)cn2ncnc12 shows IC50 strictly lower than 7 nM.
a: false (0)

q: Determine if Cc1cc(-c2[nH]nc(-c3ccc(C4CCN(CC(C)(C)C)CC4)cn3)c2C(C)C)cn2ncnc12 shows IC50 strictly lower than 7 nM.
a: false (0)

q: Determine if Cc1cc(-c2[nH]nc(C(=O)NCC3CCNCC3)c2C(C)C)cn2ncnc12 shows IC50 strictly lower than 7 nM.
a: false (0)

q: Determine if Cc1cc(-c2[nH]nc(C3CCC(N4CCOCC4)CC3)c2C(C)C)cn2ncnc12 (single isomer, unassigned) [Example 291] shows IC50 strictly lower than 7 nM.
a: true (1)

q: Determine if Cc1cc(-c2[nH]nc(C(=O)NC3CCN(C4COC4)CC3)c2CC(F)(F)F)cn2ncnc12 shows IC50 strictly lower than 7 nM.
a: true (1)

q: Determine if COc1cc(-c2[nH]nc(-c3cnc(C4CCN(CC5CC5)CC4)cn3)c2C(C)C)cn2ncnc12 shows IC50 strictly lower than 7 nM.
a: false (0)

# credit: patent US20230117470A1
